- Test system: HepG2
- measurement-description: cell viability relative to DMSO; higher = less toxic
- measurement-conditions: 72 h; 100 nM
Where a name gives a salt, the structure may show the parent alone.
measurement-kind: cell viability (%)
Write the value in % as a bare number.

See these solved cases before continuing.
QUERY: Item CN1[C@@H]2CC[C@H]1C[C@@H](OC(=O)N1Cc3ccccc3NC1=O)C2 [DAU-5884] has what recorded cell viability?
RESULT: 94.5

QUERY: Please report the recorded cell viability for `CCn1c(N)c(C(=O)NC)c(=O)c2ccc(C#C[C@@](C)(O)COC)nc21` .
RESULT: 93.2

QUERY: Would you mind telling me what cell viability value was observed for OC(CN1CCN(c2cccc(Cl)c2)CC1)C(c1ccccc1)c1ccccc1 (configuration not stated) ?
RESULT: 92.4

QUERY: Any idea what its cell viability is? The compound is CC1(C)O[C@@H]2C[C@H]3[C@@H]4C[C@H](F)C5=CC(=O)C=C[C@]5(C)[C@H]4[C@@H](O)C[C@]3(C)[C@]2(C(=O)CO)O1 [flunisolide]
RESULT: 97.3

QUERY: So what's the measured cell viability for this one? CCC[C@@H]1C[C@@H](C(=O)N[C@@H]([C@H]2O[C@H](SC)[C@H](O)[C@@H](O)[C@H]2O)[C@H](C)Cl)N(C)C1 [CLINDAMYCIN HYDROCHLORIDE]
RESULT: 104

Continuing:
QUERY: Give its cell viability value. Item: O=c1c(O[C@@H]2O[C@H](CO)[C@H](O)[C@H](O)[C@H]2O)c(-c2ccc(O)c(O)c2)oc2cc(O)cc(O)c12 [hyperin]
RESULT: 87.3

QUERY: What measured cell viability goes with `O=C1NC(=O)C(c2ccccc2[N+](=O)[O-])=C1Nc1ccc(O)c(Cl)c1` ?
RESULT: 95.5

Taken from the supplement of paper PMC13380429.
